- targetUnderTest: FGFR4 in MDA-MB-453 cells (Homo sapiens (Human), UniProt P22455, Y367C)
- Sequence (P22455 22-802 Y367C): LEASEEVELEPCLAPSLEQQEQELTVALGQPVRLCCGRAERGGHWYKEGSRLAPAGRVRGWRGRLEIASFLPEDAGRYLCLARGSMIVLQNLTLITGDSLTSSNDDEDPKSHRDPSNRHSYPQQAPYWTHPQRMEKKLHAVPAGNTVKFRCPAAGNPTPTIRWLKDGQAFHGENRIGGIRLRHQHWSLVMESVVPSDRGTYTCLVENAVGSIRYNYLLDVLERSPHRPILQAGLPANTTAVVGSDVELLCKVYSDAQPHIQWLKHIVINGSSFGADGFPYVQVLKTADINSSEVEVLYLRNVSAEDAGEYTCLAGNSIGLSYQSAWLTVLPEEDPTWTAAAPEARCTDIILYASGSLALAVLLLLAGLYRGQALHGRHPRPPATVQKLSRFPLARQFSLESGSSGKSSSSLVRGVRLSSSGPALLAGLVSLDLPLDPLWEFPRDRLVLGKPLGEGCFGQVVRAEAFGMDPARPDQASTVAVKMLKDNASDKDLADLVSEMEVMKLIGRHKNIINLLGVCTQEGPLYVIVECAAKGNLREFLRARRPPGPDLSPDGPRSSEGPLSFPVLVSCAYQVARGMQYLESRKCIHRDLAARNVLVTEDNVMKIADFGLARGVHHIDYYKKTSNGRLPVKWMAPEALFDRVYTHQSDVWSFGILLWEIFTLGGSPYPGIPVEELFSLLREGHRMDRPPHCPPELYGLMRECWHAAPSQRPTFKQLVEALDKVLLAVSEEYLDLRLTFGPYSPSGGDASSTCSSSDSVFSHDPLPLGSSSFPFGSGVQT
- assayOverview: Target occupancy assay with biotinylated covalent probe I-127
- experimentalSetup: MDA-MB-453 lysate; 2 μM biotinylated probe I-127
Consider the following molecules and their measured EC50 readings.

C=CC(=O)NC1CCCCC1Nc1ncc2c(n1)N(Cc1ccccc1)C(=O)N(c1c(Cl)c(OC)cc(OC)c1Cl)C2 (racemic) ... 101 to 500 nM
C=CC(=O)NC1CCCCC1Nc1ncc2c(n1)N(CCOC)C(=O)N(c1c(Cl)c(OC)cc(OC)c1Cl)C2 (racemic) ... 101 to 500 nM
C=CC(=O)Nc1cc(N2CCN(CCOC)CC2)ccc1Nc1ncc2c(n1)N(C)C(=O)N(c1cc(OC)cc(OC)c1)C2 ... 101 to 500 nM
C=CC(=O)Nc1cc(N(C)CCOC)ccc1Nc1ncc2c(n1)N(C)C(=O)N(c1cc(OC)cc(OC)c1)C2 ... 101 to 500 nM
C=CC(=O)Nc1ccccc1Nc1ncc2c(n1)N(C)C(=O)N(c1cc(OC)cc(OC)c1)C2 ... 101 to 500 nM

Exercise: Give EC50 for the following molecule: CCC(=O)Nc1cccc(CN2C(=O)N(c3c(Cl)c(OC)cc(OC)c3Cl)Cc3cnc(Nc4ccccc4NC(=O)CC)nc32)c1
Key: > 1000 nM

Exercise: Give EC50 for the following molecule: C=CC(=O)Nc1ccccc1Nc1ncc2c(n1)N(Cc1cccc(F)c1)C(=O)N(c1c(Cl)c(OC)cc(OC)c1Cl)C2
Key: 101 to 500 nM

Exercise: Give EC50 for the following molecule: C=CC(=O)Nc1ccccc1Nc1ncc2c(n1)N(Cc1cccnc1)C(=O)N(c1cc(OC)cc(OC)c1)C2
Key: 101 to 500 nM

Exercise: Give EC50 for the following molecule: C=CC(=O)N[C@H]1CCCC[C@H]1Nc1ncc2c(n1)N(Cc1cscn1)C(=O)N(c1c(Cl)c(OC)cc(OC)c1Cl)C2
Key: 101 to 500 nM

Exercise: Give EC50 for the following molecule: C=CC(=O)Nc1ccccc1Nc1ncc2c(n1)N(Cc1csc(C)n1)C(=O)N(c1c(Cl)c(OC)cc(OC)c1Cl)C2
Key: < 100 nM

Exercise: Give EC50 for the following molecule: C=CC(=O)Nc1cc(N2CCN(CCOC)CC2)ccc1Nc1ncc2c(n1)N(Cc1cccc(NC(=O)CC)c1)C(=O)N(c1cc(OC)cc(OC)c1)C2
Key: < 100 nM
